FYI, the data here is from PubChem BioAssay.

Assay Comment: inhibitors of the yeast RAM network, pilot screen, dse1pr::URA3 reporter, 5-FOA selection (AID 869);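 note: 0% = DMSO wells with no growth and 100% = 10 µM 1-NA-PP1 with full growth; RAM network block rescues cells from 5-FOA so hits raise OD615 growth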
Experimental Setup: S. cerevisiae dse1pr::URA3 5-FOA growth, OD615, 2 d; at 10 µM; active compounds read high; strain carries analog-sensitive mutant Cbk1 kinase
Calls of active or inactive are those of the source.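 Rule for the calls: active = inhibition over a set limit, the all-compound mean plus 3 SD, in both replicate runs; inconclusive = over that limit in just one replicate run; inactive = at or under that limit in both runs.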
Value Kind: inhibition

inhibition for Cn1c(SCc2nc(-c3ccc(Cl)cc3)no2)nnc1-c1ccco1 ?
2.02% (inactive)

inhibition for CCOC(=O)N1CCC(N2Cc3cccc(C(=O)NCc4ccccn4)c3C2=O)CC1 ?
2.19% (inactive)

inhibition for CCCCn1c(CCCNC(=O)CC)nc2ccccc21 ?
1.65% (inactive)

inhibition for CC(C)(C)c1nnc2sc(SCC(=O)c3cccs3)nn2c1=O ?
2.62% (inactive)

inhibition for CC(C)(C)NC(=O)CSc1nccn1Cc1ccccc1 ?
1.66% (inactive)

inhibition for O=C(c1ccco1)N1CCN(C(=O)c2oc(=O)c3ccccc3c2-c2ccccc2)CC1 ?
0.68% (inactive)

inhibition for Cc1occc1C(=O)NCc1ccc2c(c1)OCO2 ?
1.78% (inactive)

inhibition for CC(=O)Nc1ccc(S(=O)(=O)N2CCN(c3ccc(C)c(Cl)c3)CC2)cc1 ?
1.71% (inactive)

inhibition for CC(=O)c1sc(NC(=O)c2ccco2)nc1-c1ccccc1 ?
1.87% (inactive)

inhibition for COc1cccc(OCCn2c(C)c(/C=N/n3cnnc3)c3ccccc32)c1 ?
2.11% (inactive)

inhibition for Cn1cnnc1SCC(=O)c1ccc2c(c1)CCCC2 ?
0.17% (inactive)

----------
Assay Comment: viability gain of MRP-1-high H69AR cells under doxorubicin, pilot screen, MRP-1 activator project, CellTiter-Glo, duplicate (AID 807);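 note: compound pretreatment 18-22 h then 72 h combined with doxorubicin; 0% = doxorubicin alone and 100% = vehicle without doxorubicin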
Experimental Setup: H69AR viability with doxorubicin, CellTiter-Glo luminescence; at 10 µM; active compounds read high
Value Kind: viability increase (%)
Write the value in % as a bare number.

viability increase for COC(=O)c1cc(-c2ccc3c(c2)OCO3)nc2ccccc12 ?
-0.1

viability increase for COc1ccc(NC(=O)C2=C(C)NC(=O)NC2c2cccc(OC)c2OC)c(OC)c1 (stereo unspecified) ?
0.09

viability increase for O=C1C2C3C=CC(CO)(O3)C2C(=O)N1c1ccccc1-c1ccccc1 (stereo unspecified) ?
-4.39

viability increase for COc1cc(C2C(C(=O)Nc3ccccc3OC)=C(C)Nc3ncnn32)ccc1O (stereo unspecified) ?
-2.38

viability increase for COc1ccc(S(=O)(=O)Cc2ccc(C(=O)NCc3cccs3)o2)cc1 ?
-4.71

viability increase for CCN1CCCC1CNC(=O)c1cc2c(-c3ccc(Cl)cc3)nn(C)c2s1 (stereo unspecified) ?
-8.33

viability increase for O=C(O)C1CCCCN1S(=O)(=O)c1ccc(Cl)s1 (stereo unspecified) ?
-1.27

viability increase for CNC(=O)c1cc2cc(OC)ccc2n1CCN(C)C ?
-3.65

viability increase for Cc1ccc(-c2nnc(N3CCCCC3)c3ccccc23)cc1S(=O)(=O)N1CCN(C)CC1 ?
-5.28

viability increase for CCn1c(C)nc2cc(S(=O)(=O)N3CCCC3)ccc21 ?
-1.11

viability increase for CC1(C)C(=O)OC(C(=O)c2ccccc2)C(C)(C)C1=O (stereo unspecified) ?
0.07

viability increase for CCCCn1nc(NC(=O)c2cccs2)c2cc3ccccc3nc21 ?
1.45

viability increase for CC(=O)NC(O)C(=O)c1ccccc1 (stereo unspecified) ?
-2.24

viability increase for CSc1ccc(C2C(C#N)=C(N)N(c3ccccc3)C3=C2C(=O)CCC3)cc1 (stereo unspecified) ?
-7.43

viability increase for COc1ccc(C2CC(C(F)(F)F)n3ncc(C(=O)O)c3N2)cc1OC (stereo unspecified) ?
0.06

viability increase for C=C(C)Cn1c(C2CC(=O)N(Cc3ccccc3)C2)nc2ccccc21 (stereo unspecified) ?
-1.95

viability increase for COc1ccccc1N1CCN(C(=O)CN(c2ccccc2OC)S(=O)(=O)c2ccccc2)CC1 ?
-1.57

viability increase for Cc1ccc(C(c2sc3ncnn3c2O)N2CCCCC2)cc1 (stereo unspecified) ?
1.87

viability increase for O=C(NC1CSC/C1=N\O)c1ccccc1 (stereo unspecified) ?
-2.52

viability increase for CCn1c(-c2ccc(N)cc2)nc2ccccc21 ?
-3.43

viability increase for COC(=O)CN(n1cnnc1)S(=O)(=O)c1ccccc1 ?
-0.13

viability increase for COc1cccc(-n2c(Cc3cc(=O)[nH]c(=O)[nH]3)nnc2SCC(=O)Nc2ccccc2)c1 ?
-0.3

viability increase for C=CCN(C(=O)CN1CCOCC1)c1nc(C)c(-c2ccccc2)s1 ?
-3.35

viability increase for COc1cc2[nH]c(=O)n(CCC(=O)NC3CCN(Cc4ccccc4)CC3)c(=O)c2cc1OC ?
-1.84

viability increase for CC1CCCCN1C(=O)c1ccccc1NC(=O)c1ccco1 (stereo unspecified) ?
-2.69

viability increase for Cc1cc(C(=O)Nc2nnc(C3CCCCC3)s2)cs1 ?
1.38

viability increase for Cc1sc2ncnc(NCCCO)c2c1C ?
-1.72

viability increase for Cn1c(=O)cc(N2CCCCC2)[nH]c1=O ?
-0.1

viability increase for CCOC1OC2C(CO)OC(n3cnc4c(N)ncnc43)C2O1 (stereo unspecified) ?
0.13

viability increase for CC1CCCCN1CCCNC(=O)C1CCN(c2nc3ccccc3o2)CC1 (stereo unspecified) ?
-0.83

viability increase for CCOCCn1c(CN2CCC(C)CC2)nc2c1c(=O)n(C)c(=O)n2C ?
-1.22

viability increase for N#Cc1c2n(c3c(=O)n(Cc4ccc(Cl)cc4)cnc13)CCCC2 ?
1.08

viability increase for O=C(NC1CCCCCCC1)c1cnccn1 ?
-0.43

viability increase for C1=C(N2CCOCC2)/C(=C/c2nc3ccccc3[nH]2)CC1 ?
-4.25

viability increase for COCCn1c(SCC(=O)OCc2ccccc2)nc2c1c(=O)[nH]c(=O)n2C ?
1.83

viability increase for Nc1c(Br)cc(Br)c(N2CCCC2=O)c1Br ?
-2.68

viability increase for O=S(=O)(NCCN1CCCC1)c1cccc2cccnc12 ?
-2.62

viability increase for Cc1noc(NS(=O)(=O)c2ccc(NC(=O)CCn3c(=O)oc4ccccc43)cc2)c1C ?
-1.22

viability increase for COC(=O)c1nc2n(n1)C(c1cccc(Cl)c1)C1=C(CCCC1=O)N2 (stereo unspecified) ?
-2.99

viability increase for CCOc1ccc(NC(=O)N2CCC(n3c(=O)[nH]c4ccccc43)CC2)cc1 ?
6.11

viability increase for O=C(Cc1cccs1)N1CCN(c2ccccn2)CC1 ?
-0.45

viability increase for CCOC(=O)C1=C(CS(=O)(=O)c2ccccc2)NC(=O)NC1c1ccccc1OCC (stereo unspecified) ?
0.13

viability increase for CCOCCCNC(=O)C(c1ccc(C)cc1)N1CCOCC1 (stereo unspecified) ?
-3.18

viability increase for CCOC(=O)c1c(C)c(-c2ccccc2)n(CC(=O)N2CCN(C)CC2)c1C ?
-2.94

viability increase for C=CCn1c(CSc2nc3ccccc3s2)nnc1SCC(=O)OCC ?
-0.04

viability increase for Cn1ccnc1SCc1cn2cc(Br)ccc2n1 ?
-3.12
